Catalogue of TGI values
System: BT-549 breast
Test: NCI tumour cell line growth inhibition, 48 h
property-label: TGI

> print(dat)
                                    compound  recorded.measurement
 1             CSc1n[nH]c(N)c1C(=O)Nc1ccccc1              > 100 µM
 2  O=C(Nc1ccc(Cl)c(Cl)c1)NS(=O)(=O)c1cnccc1Oc1ccc(F)cc1               40.4 µM
 3  Cc1cc(N(CCC#N)CCC#N)ccc1/C=C(\NC(=O)/C=C/c1ccccc1)C(=O)NN               80.4 µM
 4  CC1(C)CC2C(=O)c3ccccc3NC2c2ccccc21 (stereo not given)              > 100 µM
 5  CN(C)C(=O)O[C@H]1CN[C@H](C#Cc2cc3ncnc(Nc4ccc(OCc5cccc(F)c5)c(Cl)c4)c3s2)C1               10.2 µM
 6          COC(=O)/C(C#N)=C(/NCCN)Nc1ccccc1              > 100 µM
 7     O=C(C(Cl)=C(N1CCOCC1)N1CCOCC1)C(Cl)Cl              > 100 µM
 8       CC(=O)/C(=C/c1ccccc1F)C(=O)c1ccccc1              > 100 µM
 9  C=C1c2nc3ccccc3n2C=C(c2ccc(Cl)cc2)N1c1ccc(OC)cc1               6.88 µM
10       O=c1cc(N2CCCC2)[nH]c(=O)n1-c1ccccc1              > 100 µM
